# System: U-251
# methodDescription: Antiproliferative activity against human U-251 cells assessed as inhibition of cell growth at 100 uM incubated for 48 hrs by MTT assay
# Type: functional
# Parameters: scale not given: the % may be the effect or the level left
Active and inactive are the calls of the source. No cut-off for these calls is given here.
quantity: Activity

- inputSmiles: "C=C(C)C#C[C@]12O[C@H]1[C@@H]1OC(C)(C)[C@H](OC(C)=O)C[C@@]13O[C@H]3C2=O"
  result: ">50%"
- inputSmiles: "CC(=O)O[C@@H]1Cc2c(cc3c(c2O)OC(C)(C)CC3=O)OC1(C)C"
  result: "inactive"
- inputSmiles: "CC1(C)CC(=O)c2cc3c(c(Cl)c2O1)C[C@@H](O)C(C)(C)O3"
  result: "inactive"
- inputSmiles: "CO[C@@H]1C2=C(OC(C)(C)CC2=O)[C@@H]2O[C@@]23C[C@@H](OC(C)=O)C(C)(C)O[C@@H]13"
  result: "inactive"
- inputSmiles: "CC1(C)CC(=O)C2=C(O1)C(=O)[C@@]1(O)C[C@@H](O)C(C)(C)O[C@H]1[C@@H]2O"
  result: "inactive"
- inputSmiles: "CC(=O)O[C@@H]1C[C@]23O[C@H]2[C@]2(O)CC(C)=CC(=O)C2=C[C@@H]3OC1(C)C"
  result: "inactive"
- inputSmiles: "C=C(C)C#C[C@]12O[C@H]1[C@@H]1OC(C)(C)[C@H](OC(C)=O)C[C@@]13O[C@H]3[C@@H]2OC(C)=O"
  result: ">50%"
- inputSmiles: "CC(=O)O[C@@H]1C[C@]23O[C@H]2C2=C(C(=O)CC(C)(C)O2)[C@@H](O)[C@@H]3OC1(C)C"
  result: "inactive"

----------
# System: U-251
# methodDescription: Antiproliferative activity against human U-251 cells assessed as inhibition of cell growth incubated for 48 hrs by MTT assay
# Format: functional, cell-based
# assaySetup: U-251, 48 h
quantity: IC50 (µM)

- compound: "C=C(C)C#C[C@]12O[C@H]1[C@@H]1OC(C)(C)[C@H](OC(C)=O)C[C@@]13O[C@H]3C2=O"
  quantity: "IC50"
  numericReadout: 20
- compound: "Cn1nnc2c(C(N)=O)ncn2c1=O [TEMOZOLOMIDE]"
  quantity: "IC50"
  numericReadout: 189
